Experiment: NCI Yeast Anticancer Drug Screen. Data for the bub3 strain (AID 167)
Details: S. cerevisiae bub3 mutant strain, at 50.0 µM, stronger effect = higher value
This is part of a sample that, as a whole, favours compounds with a hit. Of some 79,000 tested, about 15% had one in any assay.
Classes by growth inhibition: low range: < 70%; mid range: ≥ 70% and < 90%; high range: ≥ 90%

Prompt: Input CCCCCCCCCCCCn1cnc2ncnc(Cl)c21 ; output its category
Response: high range

Prompt: Hello team, could you let me know which band the following compound falls into: COC(=O)C1C(O)C(C)C(=O)C(C)/C=C\C=C(C)C(=O)Nc2c(C)c(OC(C)=O)c3c(c2O)C(=O)C(C)=C2OCOC(=C23)C(C)=CC(C)(O)C(O)C(C)C1O (configuration not stated)
Response: mid range

Prompt: Band assignment needed for Cc1ccc2nc(-c3ccc(N)cc3)sc2c1 please.
Response: mid range

Prompt: Exam item: assign c1ccc2nc3ccccc3nc2c1 to the correct category.
Response: low range

Prompt: Sort into band: Cc1nc(Nc2ccc(Cl)cc2)sc1C(=O)NNc1ccc([N+](=O)[O-])cc1[N+](=O)[O-]
Response: high range

Prompt: Bin this entry: C=C1CC(Cn2cc(C)c(=O)[nH]c2=O)(c2ccc(Cl)cc2)OC1=O (configuration not stated)
Response: mid range

Prompt: Which growth inhibition band matches COCc1ccc([N+](=O)[O-])o1 ?
Response: low range

Prompt: State the class of the compound shown: N#CCCN(CCC#N)Cc1c(O)c(O)c(CN(CCC#N)CCC#N)c2ccccc12
Response: low range

Prompt: Lab log: CSC(=S)N/N=C(/C)CC(C)C — assign growth inhibition category
Response: high range

Prompt: Lab note: sort O=C1CSC(=S)N1c1ccc(F)cc1F into the matching growth inhibition band.
Response: mid range
